Values from paper PMC10479830

System: rubella RA27/3 virus
Assay: microbe, parasite or virus in culture
Assay type: cell-based
Conditions: Rubella virus, A549, read-out: IC50, rubella virus infection
pIC50: −log10 of the molar value.
MEASURE_NAME: pIC50

{"columns": ["SMILES_STRUCTURE", "MEASURE_NAME", "MEASURED_RESULT"],
 "data": [
  ["C[C@@]1(O)[C@H](O)[C@@H](CO)O[C@H]1n1ccc(N)nc1=O", "pIC50", 7.70]
]}

###

System: A549 cells
Assay: cell number (cell viability) in A549 cells, Hoechst 33342, automated microscopy
Format: cell-based, human
Conditions: A549 cells, cell number; read-out: half-maximal cytotoxicity concentration (CC50)
MEASURE_NAME: CC50 (nM)

{"columns": ["MOLECULE", "TARGET_SYSTEM", "MEASURE_NAME", "UNIT_OF_MEASUREMENT", "MEASURED_RESULT"],
 "data": [
  ["CO[C@H]1CC[C@@H](O[C@H]2C[C@H]([C@]3(C)CC[C@]4(C[C@H](O)[C@@H](C)[C@@H]([C@@H](C)/C=C(\\C)C(=O)[C@H](C)C[C@H](C)C(=O)O)O4)O3)O[C@]3(O[C@@H]([C@H]4O[C@@](O)(CO)[C@H](C)C[C@@H]4C)C[C@@H]3C)[C@@H]2C)O[C@@H]1C [nanchangmycin]", "A549 cells", "CC50", "nM", 3000]
]}

###

Test: cell number (cell viability) in HBMEC
Assay type: cell-based
Details: human, HBMEC (infected with rubella virus)
MEASURE_NAME: CC50 at 48 h

{"columns": ["SMILES_STRUCTURE", "MEASURE_NAME", "MEASURED_RESULT"],
 "data": [
  ["C[C@@]1(O)[C@H](O)[C@@H](CO)O[C@H]1n1ccc(N)nc1=O", "CC50 at 48 h", "> 20 µM"]
]}
